- TARGET OR TEST SYSTEM: Alpha-2B adrenergic receptor (Homo sapiens, UniProt P18089)
- Sequence (P18089 whole entry): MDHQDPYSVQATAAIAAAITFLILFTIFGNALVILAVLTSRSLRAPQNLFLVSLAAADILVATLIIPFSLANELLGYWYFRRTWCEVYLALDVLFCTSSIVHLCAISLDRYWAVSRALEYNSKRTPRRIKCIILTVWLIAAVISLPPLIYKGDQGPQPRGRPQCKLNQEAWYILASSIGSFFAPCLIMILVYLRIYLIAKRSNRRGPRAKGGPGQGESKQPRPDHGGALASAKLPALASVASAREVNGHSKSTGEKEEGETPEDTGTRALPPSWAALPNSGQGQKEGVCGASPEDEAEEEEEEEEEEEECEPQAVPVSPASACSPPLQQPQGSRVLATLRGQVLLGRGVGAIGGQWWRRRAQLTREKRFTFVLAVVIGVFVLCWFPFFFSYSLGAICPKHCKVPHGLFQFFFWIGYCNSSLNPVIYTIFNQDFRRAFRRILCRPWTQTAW
- TEST NAME: Agonist activity at human alpha2B adrenoceptor expressed in CHO cells assessed as extracellular acidification measured after 4 mins by cytosensor microphysiometric analysis
pEC50: −log10 of the molar value.
PROPERTY MEASURED: pEC50

> print(dat)
                    compound.string                     target.or.test.system  obs.value
1   C[C@H](Oc1ccccc1CC1CC1)C1=NCCN1  Alpha-2B adrenergic receptor (Homo sapiens, UniProt P18089)       5.80
2  C[C@@H](Oc1ccccc1CC1CC1)C1=NCCN1  Alpha-2B adrenergic receptor (Homo sapiens, UniProt P18089)       5.40

----------
Let's look at some compounds and their measured Ki.
- TARGET OR TEST SYSTEM: 5-hydroxytryptamine receptor 1A (Homo sapiens)
- Sequence (P08908 whole entry): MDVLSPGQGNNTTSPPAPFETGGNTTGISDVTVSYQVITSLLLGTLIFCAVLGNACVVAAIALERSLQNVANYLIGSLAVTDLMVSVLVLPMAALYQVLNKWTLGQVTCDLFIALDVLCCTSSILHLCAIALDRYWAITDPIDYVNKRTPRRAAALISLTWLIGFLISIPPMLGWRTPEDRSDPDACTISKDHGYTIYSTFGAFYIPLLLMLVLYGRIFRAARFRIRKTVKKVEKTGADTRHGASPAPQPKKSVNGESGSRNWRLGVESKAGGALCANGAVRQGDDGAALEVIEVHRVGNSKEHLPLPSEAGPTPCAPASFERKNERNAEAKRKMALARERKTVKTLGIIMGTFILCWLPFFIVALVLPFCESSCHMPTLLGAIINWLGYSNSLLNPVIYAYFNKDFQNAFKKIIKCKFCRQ
PROPERTY MEASURED: Ki (nM)

> print(dat)
                                   compound  cmp  obs.value
1             C=CCc1ccccc1O[C@H](C)C1=NCCN1    >      10000
2           C[C@H](Oc1ccccc1CC1CC1)C1=NCCN1    =       5.75
3                   Clc1cccc(Cl)c1N=C1NCCN1    =       3240
4       C=CCc1ccccc1OC(C)C1=NCCN1 (racemic)    =       28.2
5            C=CCc1ccccc1O[C@@H](C)C1=NCCN1    =       35.5
6          C[C@@H](Oc1ccccc1CC1CC1)C1=NCCN1    =       39.8
7  CC(Oc1c(Cl)cccc1Cl)C1=NCCN1 (stereo not drawn)    =        126
8     CC(Oc1ccccc1CC1CC1)C1=NCCN1 (racemic)    =       10.5

----------
- TARGET OR TEST SYSTEM: Alpha-2C adrenergic receptor (Homo sapiens)
- Sequence (P18825 whole entry): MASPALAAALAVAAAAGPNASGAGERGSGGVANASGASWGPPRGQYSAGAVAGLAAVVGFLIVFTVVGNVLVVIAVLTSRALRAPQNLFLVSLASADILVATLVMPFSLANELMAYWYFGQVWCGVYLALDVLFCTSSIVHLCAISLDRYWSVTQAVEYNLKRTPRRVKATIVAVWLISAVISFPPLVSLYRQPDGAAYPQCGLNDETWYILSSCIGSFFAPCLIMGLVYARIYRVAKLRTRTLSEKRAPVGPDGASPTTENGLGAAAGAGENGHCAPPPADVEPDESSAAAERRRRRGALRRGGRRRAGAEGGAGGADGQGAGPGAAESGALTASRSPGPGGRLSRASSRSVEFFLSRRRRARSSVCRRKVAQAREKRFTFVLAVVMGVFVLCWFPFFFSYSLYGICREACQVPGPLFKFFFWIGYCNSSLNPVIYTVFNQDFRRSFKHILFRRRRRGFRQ
- TEST NAME: Agonist activity at human alpha2C adrenoceptor expressed in CHO cells assessed as extracellular acidification measured after 4 mins by cytosensor microphysiometric analysis relative to control
- Assay type: functional, cell-based
Intrinsic activity less than 0.8 is condition met; Intrinsic activity greater than or equal to 0.8 is condition not met.

> print(dat)
                              compound           category
1        C=CCc1ccccc1O[C@H](C)C1=NCCN1      condition met
2      C[C@H](Oc1ccccc1CC1CC1)C1=NCCN1  condition not met
3  C=CCc1ccccc1OC(C)C1=NCCN1 (racemic)  condition not met
4     C[C@@H](Oc1ccccc1CC1CC1)C1=NCCN1      condition met
5       C=CCc1ccccc1O[C@@H](C)C1=NCCN1  condition not met

----------
Let's look at some compounds and their measured Ki.
- TARGET OR TEST SYSTEM: UniProt P18825
PROPERTY MEASURED: Ki (nM)

> print(dat)
                    compound.string  property.measured  obs.value
1  C[C@@H](Oc1ccccc1CC1CC1)C1=NCCN1                 Ki        234
2   C[C@H](Oc1ccccc1CC1CC1)C1=NCCN1                 Ki        275

----------
System: Alpha-2A adrenergic receptor (Homo sapiens) | Read-out: Ki
Sequence (P08913 whole entry): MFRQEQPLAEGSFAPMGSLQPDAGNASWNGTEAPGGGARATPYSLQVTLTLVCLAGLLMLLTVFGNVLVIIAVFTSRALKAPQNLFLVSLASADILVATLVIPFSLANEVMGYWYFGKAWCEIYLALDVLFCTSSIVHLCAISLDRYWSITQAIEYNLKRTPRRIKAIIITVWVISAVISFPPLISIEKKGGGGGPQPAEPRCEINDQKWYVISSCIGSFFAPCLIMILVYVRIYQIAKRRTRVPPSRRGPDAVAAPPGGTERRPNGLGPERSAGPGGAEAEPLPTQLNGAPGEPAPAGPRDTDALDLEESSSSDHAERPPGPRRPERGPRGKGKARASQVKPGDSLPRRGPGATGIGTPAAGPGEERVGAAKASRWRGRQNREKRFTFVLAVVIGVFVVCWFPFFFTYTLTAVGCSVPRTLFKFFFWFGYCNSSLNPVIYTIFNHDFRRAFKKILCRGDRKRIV
PROPERTY MEASURED: Ki (nM)

> print(dat)
                    compound.string                     target.or.test.system  property.measured  obs.value
1  C[C@@H](Oc1ccccc1CC1CC1)C1=NCCN1  Alpha-2A adrenergic receptor (Homo sapiens)                 Ki       44.7
2   C[C@H](Oc1ccccc1CC1CC1)C1=NCCN1  Alpha-2A adrenergic receptor (Homo sapiens)                 Ki       41.7
